# target.under.test: T1, human PCSK9 (proprotein convertase subtilisin kexin type 9) (human, UniProt Q8NBP7 31-692)
# T1 construct: Directly immobilized (SPR ProteOn), biotinylated (BLI), or in solution, depending on the assay; also called hPCSK9
# protocol.notes: BLI, biotinylated hPCSK9 on sensor tips
Measured kon accompanies every entry in the list below.
observation.type: kon (M⁻¹ s⁻¹)

binder	unit.name	measurement
2382H03 (designed binder, Anti-PCSK9 Adnectin, His6-tagged) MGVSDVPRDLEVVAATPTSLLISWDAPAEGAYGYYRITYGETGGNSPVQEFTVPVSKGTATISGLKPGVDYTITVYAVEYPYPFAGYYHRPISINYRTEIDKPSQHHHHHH	M⁻¹ s⁻¹	471000
2381H09 (designed binder, Anti-PCSK9 Adnectin, His6-tagged) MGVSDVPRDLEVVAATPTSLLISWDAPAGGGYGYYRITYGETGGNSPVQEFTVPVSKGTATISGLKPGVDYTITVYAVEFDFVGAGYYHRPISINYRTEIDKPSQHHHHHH	M⁻¹ s⁻¹	136000
2381G09 (designed binder, Anti-PCSK9 Adnectin, His6-tagged) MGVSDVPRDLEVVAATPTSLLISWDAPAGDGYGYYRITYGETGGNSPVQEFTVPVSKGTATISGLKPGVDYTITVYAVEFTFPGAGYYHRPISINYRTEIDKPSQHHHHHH	M⁻¹ s⁻¹	271000
1922G04 (designed binder, Anti-PCSK9 Adnectin, His6-tagged; also called ATI001057; ATI-1057) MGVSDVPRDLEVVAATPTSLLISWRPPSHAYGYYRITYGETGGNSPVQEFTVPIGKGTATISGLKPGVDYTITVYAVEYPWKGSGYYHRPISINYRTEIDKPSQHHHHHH	M⁻¹ s⁻¹	532000
